Entries and their growth values follow.
System: OVCAR-8 ovarian
Experiment: NCI-60 one-dose screen, 48 h (100 = growth as untreated, 0 = no growth, -100 = all killed)
Details: 10 µM unless noted
Compounds without any hit were thinned out: in the full panel of roughly 83,000, 20% have a hit.

{"columns": ["compound", "growth / %"],
 "data": [
  ["CC(=O)c1ccc(Nc2nc(NCCO)nc(Nc3ccc(Cl)cc3)n2)cc1", 93.4],
  ["O=Nc1c(O)ccc2ccccc12.O=Nc1c(O)ccc2ccccc12.O=Nc1c([O-])ccc2ccccc12.[Fe+3]", 98.4],
  ["CCn1c(-c2nonc2Nc2ccc(OC)cc2)nc2ccccc21", 102],
  ["CCN1CCN(C(=S)SCC(=O)Nc2nc3ccc(C)cc3s2)CC1", 91.9],
  ["COc1ccc(C2c3ccc4ccccc4c3Oc3ncn(CCCn4ccnc4)c(=N)c32)cc1OC (stereo unspecified)", 67.8],
  ["CN(C)CCCNCc1ccc(-c2ccc(F)c(Cl)c2)o1", 59.3],
  ["CC/C(=C(\\CC)c1ccc(OCC[N+](C)(C)C)cc1)c1ccc(OC)cc1", 53],
  ["Cc1ccc(Cn2c(N3CCC(C(=O)NCc4cccs4)CC3)nc3ccccc32)cc1", 94.3],
  ["Oc1[nH]c2ccccc2c1N=Nc1nnc2n1N=C(c1ccccc1)CS2", 59.1],
  ["COc1cc2cc3c(=O)n4c(cc5cc(OC)ncc54)c(=O)n3c2cn1", 112],
  ["CCOC(=O)c1c2c(c(C)n1Cc1ccc(OC)cc1)-c1oncc1CC2", 88.3],
  ["O=C1/C(=C/c2ccc(O)cc2)COc2ccc(O)c(O)c21", 17.6],
  ["COc1ccc(-c2cn[nH]c2-c2cc(OC)c(OC)c(OC)c2)cc1OCc1ccccc1", 40.1],
  ["COc1cc2c(cc1OC)C(=O)C(CC1CCN(C(=O)Nc3ccc(C)cc3)CC1)C2 (stereo unspecified)", 106],
  ["O=C1NC(=O)C(=Cc2cn(Cc3cn(Cc4ccc(Cl)cc4Cl)nn3)c3ccccc23)C(=O)N1", 83],
  ["O=C(Nc1ccc(F)cc1F)c1cc(Cl)ccc1O", 10.6],
  ["COc1ccc(Cn2c(Br)c3c(c2-c2cc(OC)c(OC)c(OC)c2)CCc2sc(NC(C)=O)nc2-3)cc1", 60.4],
  ["Cn1c(C(=O)c2cccc3ccccc23)nc2ccccc21", -1.81],
  ["O=C(CSc1ncccc1C(=O)O)Nc1ccc(Oc2ccccc2)cc1", 103],
  ["Cc1c(-c2csc(-n3nc(C(F)(F)F)cc3C(F)(F)F)n2)no[n+]1[O-]", 99.2],
  ["NC1(N2SC(S)=C3CCCC=C32)CCCCC1", 107]
]}

----------
Test system: IGROV1 ovarian
Assay: NCI-60 one-dose screen, 48 h
Conditions: 10 µM unless noted
The panel holds about 83,000 compounds, 20% with a hit somewhere; the sample as a whole holds those more often. Calls of active or inactive are those of the source. The calls were made as follows: active = growth percent below 10; inactive = the rest.
Outcomes: TRUE = active, FALSE = inactive

{"columns": ["compound", "answer label"],
 "data": [
  ["Cc1ccc2cccc(Oc3ccc(Nc4ncnc5onc(-c6ccccc6)c45)cc3)c2n1", "FALSE"],
  ["OC(CNC1CCCCC1)Cn1c2ccc(I)cc2c2cc(I)ccc21 (centres undefined)", "FALSE"],
  ["COc1ccc(-n2c(C(O)c3ccccc3)n[nH]c2=S)cc1 (centres undefined)", "FALSE"],
  ["CC[C@]1(O)C[C@@H]2CN(CCc3c([nH]c4ccccc34)[C@@](C(=O)OC)(c3cc4c(cc3OC)N(C)[C@H]3[C@@](O)(C(=O)OC)[C@H](OC(=O)CCCBr)[C@]5(CC)C=CCN6CC[C@]43[C@@H]65)C2)C1", "FALSE"],
  ["O=c1oc2ccc(Cl)cc2c(=O)n1-c1ccc(I)cc1F", "FALSE"],
  ["O=c1oc2ccc(F)cc2c(=O)n1-c1ccc(Cl)cc1F", "FALSE"],
  ["CCc1ccc(CNCC(O)c2ccccc2)cc1 (centres undefined)", "FALSE"],
  ["Cn1c(/C=C(\\C#N)c2ccccc2)nc2c(N3CCOCC3)nc(Cl)nc21", "TRUE"],
  ["COc1cc2nc(NC3CCCC3)nc(NC3CCN(C(C)C)CC3)c2cc1OC", "FALSE"]
]}
